These data points were gathered from paper PMC4243055.

Target: Cdc25 phosphatase (CnCdc25) (Cryptococcus neoformans, UniProt J9VTJ5)
Sequence (J9VTJ5 442-662): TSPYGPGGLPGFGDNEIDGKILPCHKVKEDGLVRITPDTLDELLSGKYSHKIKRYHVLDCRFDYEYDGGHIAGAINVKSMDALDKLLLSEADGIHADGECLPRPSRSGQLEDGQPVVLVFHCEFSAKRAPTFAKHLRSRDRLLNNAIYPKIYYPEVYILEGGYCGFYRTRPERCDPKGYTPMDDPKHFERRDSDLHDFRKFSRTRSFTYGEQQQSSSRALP
property_measured: Ki

The reported Ki of the compound O=C1C(NCCN2CCOCC2)=C(Cl)C(=O)c2ncccc21 was ~250 µM
